experiment-summary: chemical genetic growth profiling, strain panel (AID 1159580);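 further: tested at 20 µM; growth read once vehicle control cultures reached saturation at 30 °C; 1 = growth at the plate median or of vehicle wells; lower values mean less growth of the strain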
condition-description: S. cerevisiae deletion strains, growth OD, locus YBR279W, strain paf1, active compounds read low
Screen size: about 5,500 compounds; about 2,000 (36%) were called active. Inconclusive results (about 18%) are left out. Some of the results follow.
Would you mind telling me the reported normalized growth of each entry?
Number only, no unit.

Please report the recorded normalized growth for CNC[C@H](O)c1cccc(O)c1 . 0.991

Please report the recorded normalized growth for CC(C)c1cccc(C(C)C)c1O . 0.992

Please report the recorded normalized growth for CC(C)Nc1nc(Cl)nc(NC(C)C)n1 . 0.994

Please report the recorded normalized growth for Oc1ccc2c3c1OC1[C@@H](O)CC[C@@]4(O)[C@@H](C2)N(CC2CCC2)CC[C@]314 (some centres undefined) . 0.999

Please report the recorded normalized growth for COC(=O)[C@H]1[C@H]2C[C@H]3c4[nH]c5cc(OC)ccc5c4CCN3C[C@H]2C[C@@H](OC(=O)c2cc(OC)c(OC)c(OC)c2)[C@@H]1OC . 1.01

Please report the recorded normalized growth for CCCc1nc(C)c2c(=O)[nH]c(-c3cc(S(=O)(=O)N4CCN(CC)CC4)ccc3OCC)nn12 . 0.981

Please report the recorded normalized growth for N#Cc1c(Cl)cccc1Cl . 0.983

Please report the recorded normalized growth for C/C=C/CC(C)C(O)C1C(=O)NC(CC)C(=O)N(C)CC(=O)N(C)C(CC(C)C)C(=O)NC(C(C)C)C(=O)N(C)C(CC(C)C)C(=O)NC(C)C(=O)NC(C)C(=O)N(C)C(CC(C)C)C(=O)N(C)C(CC(C)C)C(=O)N(C)C(C(C)C)C(=O)N1C (centres undefined) . 1.02

Please report the recorded normalized growth for CC1=CC(=O)C(C(C)C)=CC1=O . 0.98

---

Would you mind telling me the reported normalized growth of each entry?
experiment-summary: chemical genetic growth profiling, strain panel (AID 1159580)
condition-description: S. cerevisiae deletion strains, growth OD, locus YLR370C, strain arc18, active compounds read low
Among all 5,500 compounds or so, about 2,000 (36%) were called active. Another 18% or so got no clear call; they are omitted. This is one part of the list.
Number only, no unit.

Please report the recorded normalized growth for COc1cc(-c2cc(=O)c3c(O)c(OC)c(OC)c(OC)c3o2)cc(OC)c1OC . 1.02

Please report the recorded normalized growth for CC1(C)[C@@H]2CC[C@@]1(C)C(=O)C2 . 1.01

Please report the recorded normalized growth for C[C@H]1O[C@H](O[C@H]2[C@H](O)[C@@H](O)[C@@H](O[C@H]3[C@H](O)[C@@H](O)C(O)O[C@@H]3CO)O[C@@H]2CO)[C@H](O)[C@@H](O)[C@@H]1N[C@H]1C=C(CO)[C@@H](O)[C@H](O)[C@H]1O (stereo partly drawn) . 0.993

Please report the recorded normalized growth for C[C@@H]1CCC2[C@](C)(CO)[C@@H](O)CC[C@]2(C)[C@@]12CC[C@@](CO)(CCO)O2 (stereo partly drawn) . 0.977

Please report the recorded normalized growth for O=C(O)c1ccccc1O . 0.988

Please report the recorded normalized growth for COC(=O)N/N=C\c1c[n+]([O-])c2ccccc2[n+]1[O-] . 0.988

Please report the recorded normalized growth for CO[C@H]1[C@@H](O)[C@@H](C)O[C@H](O[C@H]2CCC3(C)C4CCC5(C)[C@@H](C6=CC(=O)OC6)CC[C@]5(O)[C@@H]4CC[C@]3(O)C2)[C@@H]1O (stereo partly drawn) . 1.01

Please report the recorded normalized growth for COc1ccc(-c2cc(=O)c3c(O)c(OC)c(OC)c(OC)c3o2)cc1OC . 0.986

Please report the recorded normalized growth for C[C@@H](CO)NC(=O)C1C=C2c3cccc4[nH]cc(c34)C[C@H]2N(C)C1 (stereo partly drawn) . 1.02

Please report the recorded normalized growth for COc1nc(NC(C)C)nc(NC(C)C)n1 . 1.04

Please report the recorded normalized growth for COc1ccc(-c2cc(=O)c3c(O)c(OC)c(O[C@H]4O[C@H](CO[C@@H]5O[C@@H](C)[C@H](O)[C@@H](O)[C@H]5O)[C@@H](O)[C@H](O)[C@H]4O)cc3o2)cc1 . 0.995

Please report the recorded normalized growth for COC1CC(O[C@H]2CC[C@]3(C=O)C4CC[C@]5(C)C(C6=CC(=O)OC6)CC[C@]5(O)C4CC[C@]3(O)C2)OC(C)C1O (stereo partly drawn) . 0.98

Please report the recorded normalized growth for CN(C)C(=O)C(CCN1CCC(O)(c2ccc(Cl)cc2)CC1)(c1ccccc1)c1ccccc1 . 1

Please report the recorded normalized growth for CC1(C)S[C@@H]2[C@H](NC(=O)C(C(=O)O)c3ccccc3)C(=O)N2[C@H]1C(=O)O (stereo partly drawn) . 0.926

Please report the recorded normalized growth for COc1ccc(-c2cc(=O)c3c(OC)c(OC)c(OC)c(OC)c3o2)cc1OC . 0.988

Please report the recorded normalized growth for O=C(CCCN1CCC2(CC1)C(=O)NCN2c1ccccc1)c1ccc(F)cc1 . 0.98

Please report the recorded normalized growth for N#Cc1c(Cl)cccc1Cl . 0.965

Please report the recorded normalized growth for COc1ccc(-c2cc(=O)c3c(O)cc(O)cc3o2)cc1 . 0.98

---

experiment-summary: chemical genetic growth profiling, strain panel (AID 1159580);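 further: tested at 20 µM; growth read once vehicle control cultures reached saturation at 30 °C; 1 = growth at the plate median or of vehicle wells; lower values mean less growth of the strain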
condition-description: S. cerevisiae deletion strains, growth OD, locus YAL013W, strain DEP1, active compounds read low
About 2,000 (36%) of roughly 5,500 compounds were called active. About 18% were inconclusive and are not listed. The list shows a part of the results.
Would you mind telling me the reported normalized growth of each entry?
Number only, no unit.

Please report the recorded normalized growth for COc1ccc([N+](=O)[O-])c(OC)c1C(N)=O . 1.02

Please report the recorded normalized growth for CO[C@H]1[C@H](O)[C@@H](O[C@H]2CC[C@]3(C=O)C4CC[C@]5(C)[C@@H](C6=CC(=O)OC6)CC[C@]5(O)C4CC[C@@H]3C2)O[C@@H](C)[C@@H]1O (stereo partly drawn) . 0.982

Please report the recorded normalized growth for Cc1ccc(Sc2nc(C)c([N+](=O)[O-])c(C)c2C#N)cc1 . 0.969

Please report the recorded normalized growth for C[C@H]1O[C@@H](O[C@H]2[C@@H](O)C[C@H](O[C@H]3[C@@H](O)C[C@H](O[C@H]4CC[C@]5(C)C6C[C@@H](O)[C@]7(C)[C@@H](C8=CC(=O)OC8)CC[C@]7(O)C6CC[C@@H]5C4)O[C@@H]3C)O[C@@H]2C)C[C@H](O)[C@@H]1O (stereo partly drawn) . 0.992

Please report the recorded normalized growth for COc1ccc(-c2cc(=O)c3c(O)cc(O)cc3o2)cc1 . 1.01

Please report the recorded normalized growth for COC(=O)C[C@H]1C(C)(C)[C@@H](O)[C@@H]2CC3=C4CC(O)O[C@@H](c5ccoc5)[C@]4(C)CCC3[C@@]1(C)C2=O (stereo partly drawn) . 1.01

Please report the recorded normalized growth for CCOC(=O)c1cnc2n(c1=O)CCS2 . 1.02

Please report the recorded normalized growth for CCOC(=O)C1=C(O)C(=O)N(Cc2ccccc2)C1 . 1.02

---

Would you mind telling me the reported normalized growth of each entry?
experiment-summary: chemical genetic growth profiling, strain panel (AID 1159580);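 further: tested at 20 µM; growth read once vehicle control cultures reached saturation at 30 °C; 1 = growth at the plate median or of vehicle wells; lower values mean less growth of the strain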
condition-description: S. cerevisiae deletion strains, growth OD, locus YDL185W, strain tfp1, active compounds read low
Screen size: about 5,500 compounds; about 2,000 (36%) were called active. Another 18% or so got no clear call; they are omitted. Some of the results follow.
Number only, no unit.

Please report the recorded normalized growth for COc1ccc(-c2cc(=O)c3c(O)cc(O)c(-c4cc(-c5cc(=O)c6c(O)cc(O)cc6o5)ccc4OC)c3o2)cc1 . 0.997

Please report the recorded normalized growth for COc1cc(C(=O)O)cc(OC)c1OC . 1.03

Please report the recorded normalized growth for COc1cc(C(=O)N2CCOCC2)cc(OC)c1OC . 1.01

Please report the recorded normalized growth for COC(=O)NC(=S)Nc1ccccc1NC(=S)NC(=O)OC . 1

Please report the recorded normalized growth for COc1cc(C)c2c(=O)c3c(O)cc(O)cc3oc2c1 . 0.955

Please report the recorded normalized growth for COc1cc(C)c2c(=O)c3c(O)cc(OC)cc3oc2c1 . 0.991

---

experiment-summary: chemical genetic growth profiling, strain panel (AID 1159580);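 further: tested at 20 µM; growth read once vehicle control cultures reached saturation at 30 °C; 1 = growth at the plate median or of vehicle wells; lower values mean less growth of the strain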
condition-description: S. cerevisiae deletion strains, growth OD, locus YOR083W, strain WHI5, active compounds read low
Hit rate of the full screen: of about 5,500 compounds, about 2,000 (36%) were called active. Roughly 18% stayed inconclusive and do not appear here. The list shows a part of the results.
Would you mind telling me the reported normalized growth of each entry?

Please report the recorded normalized growth for Cc1ccc(-c2nc3ccc(C)cn3c2CC(=O)N(C)C)cc1 . 0.969 (inactive)

Please report the recorded normalized growth for N#Cc1c(Cl)cccc1Cl . 0.974 (inactive)

Please report the recorded normalized growth for CC(C)c1cccc(O)c(=O)c1 . 0.0692 (active)

Please report the recorded normalized growth for CC1(C)O[C@@H]2CC3C4C[C@H](F)C5=CC(=O)CC[C@]5(C)C4[C@@H](O)C[C@]3(C)[C@]2(C(=O)CO)O1 (stereo partly specified) . 0.946 (inactive)

Please report the recorded normalized growth for COC(=O)[C@H]1[C@H]2C[C@H]3c4[nH]c5cc(OC)ccc5c4CCN3C[C@H]2C[C@@H](OC(=O)c2cc(OC)c(OC)c(OC)c2)[C@@H]1OC . 0.987 (inactive)

Please report the recorded normalized growth for NCCCC(O)(P(=O)(O)O)P(=O)(O)O . 0.99 (inactive)

Please report the recorded normalized growth for CC(=O)Oc1ccccc1C(=O)Oc1ccccc1C(=O)O . 1.01 (inactive)

Please report the recorded normalized growth for CC(C)c1cccc(C(C)C)c1O . 1.01 (inactive)

Please report the recorded normalized growth for C/C=C(\C)C(=O)O[C@@H]1c2c(ccc3ccc(=O)oc23)OC(C)(C)[C@@H]1OC(C)=O . 0.953 (inactive)

Please report the recorded normalized growth for CC[C@@]1(O)C(=O)OCc2c1cc1n(c2=O)Cc2cc3ccccc3nc2-1 . 0.814 (active)

Please report the recorded normalized growth for COC1=CC(=O)C=C(OC)C1=O . 0.927 (inactive)
